Tested on: U2OS
Assay: Multiplex assay against U2OS
Type: toxicity, cell-based
Details: human, 24 h, 1 µM, compound concentration 1 uM, replicate 1
Measure: Total Cell Count
Give bare numbers.

>  <Compound>
O=C(NCCO)c1cccc(-c2cc(Nc3ccc(OC(F)(F)F)cc3)ncn2)c1

>  <Target of assay>
U2OS

>  <Total Cell Count>
256

$$$$
>  <Compound>
CC1(COc2ccc3c(c2)ncn3-c2ccc3cccc(N4CCC(N)CC4)c3n2)COC1 [CRENOLANIB]

>  <Target of assay>
U2OS

>  <Total Cell Count>
156

$$$$
>  <Compound>
COc1c(C)cc(NC(=O)c2nn(Cc3ccc(F)cc3)c3c2CN(C(=O)c2ccc[nH]2)C[C@]3(C)C(N)=O)cc1C

>  <Target of assay>
U2OS

>  <Total Cell Count>
265

$$$$
>  <Compound>
Cc1ccc(/C(=C\CN2CCCC2)c2ccccn2)cc1 [TRIPROLIDINE]

>  <Target of assay>
U2OS

>  <Total Cell Count>
297

$$$$
>  <Compound>
O=C(NCC(=O)N1CC[C@H](N[C@H]2CC[C@@](O)(c3ccc(-c4ncccn4)cn3)CC2)C1)c1cccc(C(F)(F)F)c1 [PF-4136309]

>  <Target of assay>
U2OS

>  <Total Cell Count>
304

$$$$
>  <Compound>
O=C1COc2nccc(-c3ccccc3F)c2CN1Cc1cc(C(F)(F)F)cc(C(F)(F)F)c1

>  <Target of assay>
U2OS

>  <Total Cell Count>
291

$$$$
>  <Compound>
N[C@@]1(C(=O)O)CO[C@H]2[C@H](C(=O)O)[C@H]21 [LY-379268]

>  <Target of assay>
U2OS

>  <Total Cell Count>
245

$$$$
>  <Compound>
CC[C@H]1OC(=O)[C@H](C)[C@@H](O[C@H]2C[C@@](C)(OC)[C@@H](O)[C@H](C)O2)[C@H](C)[C@@H](O[C@@H]2O[C@H](C)C[C@H](N(C)C)[C@H]2O)[C@@]2(C)CC(C)=C(O2)[C@H](C)[C@@H](O)[C@]1(C)O

>  <Target of assay>
U2OS

>  <Total Cell Count>
256

$$$$
>  <Compound>
Cl.Clc1ccc2nsnc2c1NC1=NCCN1 [TIZANIDINE HYDROCHLORIDE]

>  <Target of assay>
U2OS

>  <Total Cell Count>
381

$$$$
>  <Compound>
Cc1nc2ccc(Oc3ccc(F)cc3)cc2c(=O)n1C[C@H]1CCCN(C(C)C)C1.Cl

>  <Target of assay>
U2OS

>  <Total Cell Count>
276

$$$$

List reported Total Cell Count for each of these compounds:
1. CCOc1c2c(c(OCC)c3ncccc13)CN(c1ccc(CS(=O)(=O)NC(=O)Cc3ccccc3OC)cc1C)C2=O
2. CCCn1c(=O)c2[nH]c(C3CCCC3)nc2n(CCC)c1=O
3. CSCC[C@H](NC=O)C(=O)N[C@@H](CC(C)C)C(=O)N[C@@H](Cc1ccccc1)C(=O)O
4. CCNC1(C(N)=O)CCN(c2ncnc3c2nc(-c2ccccc2Cl)n3-c2ccc(Cl)cc2)CC1 [OTENABANT]

Reply:
[235, 261, 288, 308]

The reported measurements were obtained from ChEMBL document CHEMBL5058577.
